These measurements were taken from patent US20250351832A1.

- System: chili seedlings
- EXPERIMENT_SUMMARY: Response of chili plants, greenhouse growth (Ex. 31)
- Assay type: in vivo
- PROTOCOL_CONDITIONS: chili seedlings; dose 1 ml/gm/lit; 10th day; vs water control
Please respond with t when measured Root Lenght % Increase over control is strictly beneath 30%, and with f in all other cases.

Please indicate whether the reported Root Lenght % Increase over control of C=CCc1ccc(OC)c(O)c1 is strictly below 30%.
f

Please indicate whether the reported Root Lenght % Increase over control of C/C=C\c1cc(OC)c(OC)cc1OC is strictly below 30%.
t

Please indicate whether the reported Root Lenght % Increase over control of CC12CCC(CC1=O)C2(C)C (stereo not drawn) is strictly below 30%.
t

Please indicate whether the reported Root Lenght % Increase over control of CC12CCC(CC1)C(C)(C)O2 is strictly below 30%.
t

Please indicate whether the reported Root Lenght % Increase over control of C=CCc1ccc(OC)cc1 is strictly below 30%.
t

Please indicate whether the reported Root Lenght % Increase over control of O=c1oc2c(O)c(O)cc3c(=O)oc4c(O)c(O)cc1c4c23 is strictly below 30%.
f

Please indicate whether the reported Root Lenght % Increase over control of Cc1ccc(C(C)C)c(O)c1 is strictly below 30%.
f

Please indicate whether the reported Root Lenght % Increase over control of COc1cc(CNC(=O)CCCC/C=C/C(C)C)ccc1O is strictly below 30%.
t

Please indicate whether the reported Root Lenght % Increase over control of CC1=CC(=O)C(C(C)C)=CC1=O is strictly below 30%.
f

Please indicate whether the reported Root Lenght % Increase over control of O=C(/C=C/C=C/c1ccc2c(c1)OCO2)N1CCCCC1 is strictly below 30%.
t

Please indicate whether the reported Root Lenght % Increase over control of CCCCCCCCCC(C)=O is strictly below 30%.
f

Please indicate whether the reported Root Lenght % Increase over control of CCCCCCCCCCCCCCCC(=O)O is strictly below 30%.
f

Please indicate whether the reported Root Lenght % Increase over control of Cc1ccc(C(C)C)cc1O is strictly below 30%.
f

Please indicate whether the reported Root Lenght % Increase over control of CC1CCC(C(C)C)C(O)C1 (stereo not drawn) is strictly below 30%.
t

Please indicate whether the reported Root Lenght % Increase over control of CC1=CCC2CC1C2(C)C (stereo not drawn) is strictly below 30%.
t
